SYSTEM: papain (Carica papaya)
Sequence (P00784 134-345): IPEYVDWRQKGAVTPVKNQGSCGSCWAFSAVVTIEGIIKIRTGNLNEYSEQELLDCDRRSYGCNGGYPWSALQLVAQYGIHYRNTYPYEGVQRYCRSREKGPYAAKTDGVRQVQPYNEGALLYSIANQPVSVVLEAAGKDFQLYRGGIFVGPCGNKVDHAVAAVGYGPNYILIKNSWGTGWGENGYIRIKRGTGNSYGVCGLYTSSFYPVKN
TEST METHOD NOTES: Assay of inhibition of papain (N-CBZ-Pro-Phe-Arg-pNA substrate)
Format: biochemical
Below, each entry is listed with its recorded IC50.
Only the number, expressed in µM, is required.

Record excerpt, results attached:
- CC(=O)O[C@@H]1NC(=O)[C@H]1NC(=O)[C@H](Cc1ccccc1)NC(=O)OCc1ccccc1: 0.275
- O=C(N[C@@H](Cc1ccccc1)C(=O)N[C@@H]1CNC1=O)OCc1ccccc1: 57
- CC(=O)O[C@@H]1NC(=O)[C@H]1NC(=O)[C@H](C)NC(=O)OCc1ccccc1: 7.03

We now examine a further compound.
# input Fill in: IC50 on papain (Carica papaya), entry O=C(N[C@@H](Cc1ccccc1)C(=O)N[C@H]1CNC1=O)OCc1ccccc1
# output 15.8
